Experiment: Tolerability in Balb/c mice, plasma chemistry markers (Example 14)
Format: in vivo
Conditions: male Balb/c mice, 50 mg/kg s.c. twice a week for four weeks (8 treatments), day 27
Strand notation (5' to 3'): a small letter for the sugar, then the base; units joined by * are phosphorothioate-linked, units joined directly phosphodiester-linked; [ ] holds rarer units or linkages, { } end groups; capitals alone tell only the bases. k = constrained ethyl (cEt); [5mC] = 5-methylcytosine; d = 2'-deoxy (DNA)
readout.name: AST (U/L)
Give the value, in units of U/L, as a plain number.

[[record]]
substance = "958534 (kT*kT*k[5mC]*dA*dG*d[5mC]*dA*dT*dA*dG*dA*dA*dG*kT*kA*kG; antisense) [compound 958534]"
readout_name = "AST"
endpoint_result = 1617


Find the recorded AST belonging to 958739 (kA*kG*k[5mC]*dA*dA*dT*dA*dG*dA*dG*dT*dA*dA*k[5mC]*k[5mC]*kA; antisense) [compound 958739] and report it.
186

For the substance shown here, 958622 (kG*kA*kT*dA*dT*dT*d[5mC]*d[5mC]*dG*d[5mC]*dA*dT*dT*kG*k[5mC]*k[5mC]; antisense) [compound 958622] , give the reported AST.
254

Return reported AST; argument: 958596 (kA*kG*k[5mC]*dA*dG*dT*dT*dA*dA*dG*d[5mC]*dA*d[5mC]*kT*kT*kT; antisense) [compound 958596]
162

---

Collected % UTC (Yap1 mRNA) values appear next to each entry.
Tested on: Yap1 mRNA
Experiment: Dose-dependent inhibition of human Yap1 in A-431 cells (Example 8, 10,000 cells per well, RTS4814)
Format: cell-based
Conditions: 500.0 nM; A-431 cells
Strand notation (5' to 3'): a small letter for the sugar, then the base; units joined by * are phosphorothioate-linked, units joined directly phosphodiester-linked; [ ] holds rarer units or linkages, { } end groups; capitals alone tell only the bases. k = constrained ethyl (cEt); [5mC] = 5-methylcytosine; d = 2'-deoxy (DNA)
Note: state the figure and append the unit.

Some substances with known % UTC (Yap1 mRNA) results, for comparison:
[[record]]
substance = "1074676 (antisense k[5mC]*kA*kA*dA*dT*dT*dA*dT*dA*dG*dG*d[5mC]*dA*k[5mC]*kT*k[5mC]) [compound 1074676]"
endpoint_result = "6 % UTC"

[[record]]
substance = "1075990 (k[5mC]*kG*kT*dT*dA*dT*dT*dA*dT*dG*d[5mC]*dA*dG*k[5mC]*kA*kA; antisense) [compound 1075990]"
endpoint_result = "3 % UTC"

[[record]]
substance = "1075797 (kG*kA*kT*dA*dA*dT*d[5mC]*dA*dT*dG*dA*dT*dA*k[5mC]*kT*k[5mC]; antisense) [compound 1075797]"
endpoint_result = "4 % UTC"

[[record]]
substance = "1076119 (kG*kT*kT*dA*dA*dA*dT*dA*dT*dG*dA*dA*dT*kT*kG*kG; antisense) [compound 1076119]"
endpoint_result = "12 % UTC"


Please turn your attention to the following entry.
What value of measured % UTC (Yap1 mRNA) is listed for 1076022 (kT*kA*kA*dT*dT*dA*dG*dA*dT*dG*d[5mC]*dT*dG*kA*k[5mC]*kA; antisense) [compound 1076022] ?
8 % UTC

---

Experiment: Tolerability in Sprague-Dawley rats, plasma chemistry markers (Example 21)
Type: in vivo
Settings: male Sprague-Dawley rats, 50 mg/kg s.c. weekly for 6 weeks (7 doses), 48 hours after last dose
Marks after values point to notes of the source that are not given here. Strand notation (5' to 3'): a small letter for the sugar, then the base; units joined by * are phosphorothioate-linked, units joined directly phosphodiester-linked; [ ] holds rarer units or linkages, { } end groups; capitals alone tell only the bases. e = 2'-O-(2-methoxyethyl) (MOE); k = constrained ethyl (cEt); [5mC] = 5-methylcytosine; d = 2'-deoxy (DNA)
Listed here are substances together with their documented BUN.

Study these solved cases before continuing.
[[record]]
substance = "1074756 (kG*k[5mC]*kA*d[5mC]*dT*dT*dT*dT*dA*d[5mC]*dA*dT*dT*kA*kG*kG) [compound 1074756]"
readout_name = "BUN"
endpoint_result = "0.57* mg/dL"

[[record]]
substance = "1198873 (kA*kG*dT*dG*dT*dA*dT*dG*dT*d[5mC]*dA*kG*eA*kA*eG*kA; antisense) [compound 1198873]"
readout_name = "BUN"
endpoint_result = "24* mg/dL"

[[record]]
substance = "1198440 (AAGTGTATGTCAGAAG; cEt, 2'-MOE, 5-methylcytosine, phosphorothioate modifications, further chemistry not given here) [compound 1198440]"
readout_name = "BUN"
endpoint_result = "20** mg/dL"


API: the following record is the query input.
Item 1198439 (AGTGTATGTCAGAAGA; sugar, 5-methylcytosine, phosphorothioate modifications, further chemistry not given here) [compound 1198439] has what recorded BUN?
22* mg/dL

---

The substances listed here are annotated with their YAP1 (% UTC).
System: Yap1 mRNA
Test: Antisense inhibition of human Yap1 in A-431 cells by cEt gapmers, single dose (Example 4, RTS4814)
Type: cell-based
Details: Yap1 mRNA remaining as percent of untreated control; 3-10-3 cEt gapmers; A-431 cells; Table 37
Strand notation (5' to 3'): a small letter for the sugar, then the base; units joined by * are phosphorothioate-linked, units joined directly phosphodiester-linked; [ ] holds rarer units or linkages, { } end groups; capitals alone tell only the bases. k = constrained ethyl (cEt); [5mC] = 5-methylcytosine; d = 2'-deoxy (DNA)
Give your result in % UTC as a bare value.

Item under review: 1074327 (antisense kT*kA*k[5mC]*dG*d[5mC]*dA*dG*dG*dG*d[5mC]*dT*dA*dA*k[5mC]*kT*k[5mC]) [compound 1074327] . Reported YAP1 (% UTC)?
39

Dear colleague, I am looking for the recorded YAP1 (% UTC) of the following substance: 1074263 (antisense kA*kG*k[5mC]*d[5mC]*dG*dA*dG*dT*dT*d[5mC]*dA*dT*d[5mC]*kA*kT*kA) [compound 1074263]
34

# get_value(readout='YAP1 (% UTC)', item= 1075703 (kG*kG*kA*dG*dA*dA*dA*dG*d[5mC]*d[5mC]*dA*dT*d[5mC]*kA*kA*kG; antisense) [compound 1075703] )
10

Could you tell me which YAP1 (% UTC) is on file for 1074807 (k[5mC]*k[5mC]*kA*dT*dA*dT*dA*dG*dA*dA*dG*dG*d[5mC]*kA*kT*kG; antisense) [compound 1074807] ?
75

Consider the substance 1074743 (kG*kA*kA*dA*dG*dG*dA*d[5mC]*dT*d[5mC]*dT*dT*dA*kG*kG*kT; antisense) [compound 1074743] and give its measured YAP1 (% UTC).
16

Name the reported YAP1 (% UTC) value associated with the substance 1076247 (kG*kA*k[5mC]*d[5mC]*dA*dA*dA*dA*d[5mC]*dA*dG*d[5mC]*dT*k[5mC]*kT*kT; antisense) [compound 1076247]
11

Returns the measured YAP1 (% UTC) for the input substance. Input: 1075799 (k[5mC]*k[5mC]*kT*d[5mC]*dA*dA*d[5mC]*dA*d[5mC]*dA*dT*dT*dT*kG*kA*kG; antisense) [compound 1075799]
85

Request the reported YAP1 (% UTC) associated with 1074775 (kG*kG*kT*dT*dT*dA*dT*dT*dG*dT*dA*dA*dA*kA*kG*k[5mC]; antisense) [compound 1074775]
3

Item under review: 1075063 (antisense kT*kA*k[5mC]*dG*dG*dA*dA*dG*dG*d[5mC]*d[5mC]*dA*dA*k[5mC]*kT*kG) [compound 1075063] . Reported YAP1 (% UTC)?
16

Need YAP1 (% UTC) of 1075319 (antisense kT*kA*kT*dA*dA*d[5mC]*dA*dA*dT*d[5mC]*dA*dT*d[5mC]*k[5mC]*kT*kA) [compound 1075319] , thanks.
59

---

System: Yap1 mRNA
Test: Antisense inhibition of human Yap1 in SNU-449 cells by modified oligonucleotides, single dose (Example 5, RTS36584)
Type: cell-based
Details: Table 39; SNU-449 cells, 10,000 cells per well, free uptake, 2,000 nM oligonucleotide, approx. 48 hours; RTS36584; normalized to RIBOGREEN; Yap1 mRNA relative to untreated control
Method: Modified oligonucleotides with additional chemistry modifications were designed to target a Yap1 nucleic acid and were tested for their effect on Yap1 mRNA level in SNU-449 cells. […] After a treatment period of approximately 48 hours, RNA was isolated from the cells and Yap1 mRNA levels were measured by quantitative real-time RTPCR. […] Yap1 mRNA levels were normalized to total RNA content, as measured by RIBOGREEN®. […]
Strand notation (5' to 3'): a small letter for the sugar, then the base; units joined by * are phosphorothioate-linked, units joined directly phosphodiester-linked; [ ] holds rarer units or linkages, { } end groups; capitals alone tell only the bases. e = 2'-O-(2-methoxyethyl) (MOE); k = constrained ethyl (cEt); [5mC] = 5-methylcytosine; d = 2'-deoxy (DNA)
readout.name: YAP1 (% UTC)

# example entries with known answers
[[record]]
substance = "1198370 (kT*dG*dT*d[5mC]*dT*d[5mC]*dA*dT*dG*d[5mC]*d[5mC]*kT*eT*kA*eT*kA; antisense) [Compound 1198370]"
endpoint_result = "20 % UTC"

[[record]]
substance = "1198422 (k[5mC]*dT*dT*dA*dT*dA*dT*dG*dG*dT*dT*kT*eT*kG*eT*kG; antisense) [Compound 1198422]"
endpoint_result = "18 % UTC"

[[record]]
substance = "1198372 (kA*dA*dT*dT*dG*dT*d[5mC]*dT*d[5mC]*dA*dT*kG*e[5mC]*k[5mC]*eT*kT; antisense) [Compound 1198372]"
endpoint_result = "21 % UTC"

[[record]]
substance = "1198436 (kT*dA*dT*dG*dT*dA*dA*dT*dA*dT*dT*kG*e[5mC]*kA*eA*kT; antisense) [Compound 1198436]"
endpoint_result = "69 % UTC"


So what's the measured YAP1 (% UTC) for this one? 1198392 (kA*dA*d[5mC]*dA*d[5mC]*dT*dG*dA*dG*dG*dT*kA*eT*kA*eA*k[5mC]; antisense) [Compound 1198392]
48 % UTC
